FYI, the data here is from patent US20240327518A1.

Tested on: T1, human PD-L1 on cells (human, UniProt Q9NZQ7 19-290)
T1 construct: whole, on cells; Same protein on three cell lines; also called hPD-L1; the antigen
T1 sequence (Q9NZQ7 19-290): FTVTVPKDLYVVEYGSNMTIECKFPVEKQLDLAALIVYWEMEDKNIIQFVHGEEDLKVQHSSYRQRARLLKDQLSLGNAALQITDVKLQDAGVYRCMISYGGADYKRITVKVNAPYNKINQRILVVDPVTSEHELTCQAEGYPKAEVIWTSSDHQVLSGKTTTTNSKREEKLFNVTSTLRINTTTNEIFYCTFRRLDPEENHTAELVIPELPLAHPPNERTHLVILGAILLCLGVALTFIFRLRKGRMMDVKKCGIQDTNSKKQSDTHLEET
Assay remarks: flow cytometry on MC38-hPD-L1 cells overexpressing human PD-L1
Parameter measured: EC50 (pM)
Please respond with the number in pM and leave the unit unwritten.

Supply measured EC50 of antibody 3hu (VHH, Humanized nanobody; also called humanized antibody 3) VHH: EVQLVESGGGLVQPGGSLRLSCAASGRDFLTYGMGWFRQAPGKGREFVASINWSGSMTYYADSVKGRFTISRDNAKNTVYLQMNSLKAEDTAVYICAARRGAVTYASSNEYEHWGQGTLVTVSS in your reply. 25

Supply measured EC50 of antibody 3 (VHH) VHH: EVQLVESGGGSVQTGGSLRLSCVASGRDFLTYGMGWFRQAPGKEREFVASINWSGSMTYYADSVKGRFTISRDNAKNTVYLQMNSLKPGDTAVYICAARRGAVTYASSNEYEHWGQGTQVTVSS in your reply. 25
